- Test system: T1, Human Serum Albumin (human, UniProt P02768 25-609)
- T1 construct: mature; purified protein on CM5 chips for BIAcore; also called HSA; human SA
- Test name: BIAcore SPR;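 note: purified dAbs run at 1 µM, 500 nM and 50 nM over human, cynomolgus, mouse and rat serum albumin in BIAcore binding measurements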
Metric: kon (M⁻¹ s⁻¹)

| Binder | Metric | Reported result |
| --- | --- | --- |
| DOM7h-11-3 (other) VL: DIQMTQSPSSLSASVGDRVTITCRASRPIGTTLSWYQQKPGKAPKLLILWNSRLQSGVPSRFSGSGSGTDFTLTISSLQPEDFATYYCAQAGTHPTTFGQGTKVEIKR | kon | 650000 |
| DOM7h-11-18 (other) VL: DIQMTQSPSSLSASVGDRVTITCRASRPIGTMLSWYQQKPGKAPKLLIWFGSRLQSGVPSRFSGSGSGTDFTLTISSLQPEDFATYHCAQAGTHPTTFGQGTKVEIKR | kon | 3.4e+06 |
| DOM7h-11-19 (other) VL: DIQMTQSPSSLSASVGDRVTITCRASRPIGTMLSWYQQKPGKAPKLLILFGSRLQSGVPSRFSGSGSGTDFTLTISSLQPEDFATYYCAQTGTHPTTFGQGTKVEIKR | kon | 1.8e+06 |
| DOM7h-14 (other, Vk dAb (AlbudAb)) VL: DIQMTQSPSSLSASVGDRVTITCRASQWIGSQLSWYQQKPGKAPKLLIMWRSSLQSGVPSRFSGSGSGTDFTLTISSLQPEDFATYYCAQGAALPRTFGQGTKVEIKR | kon | 1.43e+06 |
| DOM7h-14-19 (other, Vk dAb (AlbudAb)) VL: DIQMTQSPSSLSASVGDRVTISCRASQWIGSQLSWYQQKPGEAPKLLIMWRSSLQSGVPSRFSGSGSGTDFTLTISSLQPEDFATYYCAQGAALPRTFGQGTKVEIKR | kon | 826000 |
| DOM7h-11-12 (other) VL: DIQMTQSPSSLSASVGDRVTITCRASRPIGTMLSWYQQKPGKAPKLLILFGSRLQSGVPSRFSGSGSGTDFTLTISSLQPEDFATYYCAQAGTHPTTFGQGTKVEIKR | kon | 1.26e+06 |
| DOM7h-14-10 (other, Vk dAb (AlbudAb)) VL: DIQMTQSPSSLSASVGDRVTITCRASQWIGSQLSWYQQKPGKAPKLLIMWRSSLQSGVPSRFSGSGSGTDFTLTISSLQPEDFATYYCAQGLRHPKTFGQGTKVEIKR | kon | 1.5e+06 |
